Biological target: human GLP-1R (Homo sapiens, UniProt P43220, G168S)
Sequence (P43220 24-463 G168S limits assumed): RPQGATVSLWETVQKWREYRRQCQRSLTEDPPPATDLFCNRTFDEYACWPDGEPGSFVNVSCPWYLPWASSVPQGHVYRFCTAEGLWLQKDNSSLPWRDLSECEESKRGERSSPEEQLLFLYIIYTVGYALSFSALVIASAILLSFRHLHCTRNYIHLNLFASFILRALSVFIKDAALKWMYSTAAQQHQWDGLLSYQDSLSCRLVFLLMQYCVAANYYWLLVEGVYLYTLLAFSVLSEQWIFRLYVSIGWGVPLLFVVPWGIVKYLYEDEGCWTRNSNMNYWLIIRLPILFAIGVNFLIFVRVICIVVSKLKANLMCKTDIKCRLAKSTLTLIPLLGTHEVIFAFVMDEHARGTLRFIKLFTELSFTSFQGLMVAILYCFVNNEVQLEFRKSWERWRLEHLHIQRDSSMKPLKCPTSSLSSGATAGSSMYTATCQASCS
Assay: CHO GLP-1R Clone H6—Assay 1: HTRF cAMP cell-based functional agonist assay (high GLP-1R density)
Conditions: read-out: Assay 1 EC50; CHO GLP-1R Clone H6, cAMP HTRF; geometric mean
For each record, check the reported EC50: if it is below 200 nM write t, else write f.

Observe how each entry below is paired with its result.
COCCN1CCC(Cn2c(CN3CCC(c4cccc(OCc5ccc(Cl)cc5F)n4)CC3)nc3ccc(C(=O)O)cc32)CC1 [Example 11A-12] | f
COCCn1c(CN2CCN(c3cccc(OCc4ccc(Cl)cc4F)n3)[C@@H](CO)C2)nc2ccc(C(=O)O)cc21 [Example 1A-15] | f
Cn1c(CN2CCC(c3cccc(OCc4ccccc4)n3)CC2)nc2ccc(C(=O)O)cc21 [Example 9A-01] | f
COCCn1c(CN2CCN(c3cccc(OCc4ccc(C#N)cc4F)n3)C[C@@H]2C)nc2ccc(C(=O)O)cc21 [Example 1A-03] | t
C[C@H]1CN(c2cccc(OCc3ccc(C#N)cc3F)n2)CCN1Cc1nc2ccc(C(=O)O)cc2n1CC1CCCO1 (single isomer, unassigned; diastereomer 2) [Example 14A-12] | t
COCCn1c(CN2CCC(c3cccc(OCc4ccc(C)cc4)n3)CC2)nc2ccc(C(=O)O)cc21 [Example 8A-01] | t
O=C(O)c1ccc2nc(CN3CCC(c4cccc(OCc5ccc(Cl)cc5F)n4)CC3)n(Cc3ccc(Cl)cn3)c2c1 [Example 11A-02] | f
O=C(O)c1ccc2nc(CN3CCC(c4cccc(OCc5ccc(Cl)cc5F)n4)CC3)n(C[C@H]3CCO3)c2n1 [Example 2A-22] | t
Cn1cc(CCn2c(CN3CCC(c4cccc(OCc5ccc(Cl)cc5F)n4)CC3)nc3ccc(C(=O)O)cc32)nn1 [Example 11A-44] | f

INPUT: Does the reported EC50 of the following compound sit strictly below 200 nM? O=C(O)c1ccc2nc(CN3CCC(c4cccc(OCc5ccc(Cl)cc5F)n4)CC3)n(CCN3CCOCC3)c2c1 [Example 11A-50]
OUTPUT: f

====

Biological target: human GLP-1R (Homo sapiens, UniProt P43220, G168S)
Experiment: CHO GLP-1R Clone H6—Assay 1: HTRF cAMP cell-based functional agonist assay (high GLP-1R density)
Details: read-out: Assay 1 Emax (%), CHO GLP-1R Clone H6; relative to saturating concentration of full agonist GLP-1 (1 μM); arithmetic mean
As shown below, each of these compounds has a reported Emax value.
Output spec: scalar in %, unitless text.

CC1(Cn2c(CN3CCC(c4cccc(OCc5ccc(Cl)cc5F)n4)CC3)nc3ccc(C(=O)O)cc32)CCO1 (stereo not drawn) [Example 10A-53] | 68
O=C(O)c1ccc2nc(CN3CCC(c4cccc(OCc5ccc(F)cc5F)n4)CC3)n(C[C@@H]3CCO3)c2c1 [Example 10A-05] | 71

Next, consider the following compound.
Param item: O=C(O)c1ccc2nc(CN3CCC(c4cccc(OCc5ccc(Cl)cc5F)n4)CC3)n(CC3CCC3)c2c1 [Example 11A-16] ; param system: human GLP-1R (Homo sapiens, UniProt P43220, G168S); output Emax: 71

====

Entries annotated with measured EC50
Biological target: human GLP-1R (Homo sapiens, UniProt P43220, G168S)
Experiment: CHO GLP-1R Clone H6—Assay 1: HTRF cAMP cell-based functional agonist assay (high GLP-1R density)
Conditions: read-out: Assay 1 EC50; CHO GLP-1R Clone H6, cAMP HTRF; geometric mean

Examples with their reported EC50 follow.
O=C(O)c1ccc2nc(CN3CCC(c4cccc(OCc5ccc(Cl)cc5F)n4)CC3)n(CCC3CCCCO3)c2c1 (stereo not shown) [Example 11A-05] | > 20 µM
CN1CCC(Cn2c(CN3CCC(c4cccc(OCc5ccc(Cl)cc5F)n4)CC3)nc3ccc(C(=O)O)cc32)CC1 [Example 11A-08] | > 20 µM
Cn1cnc(CCn2c(CN3CCC(c4cccc(OCc5ccc(Cl)cc5F)n4)CC3)nc3ccc(C(=O)O)cc32)c1 [Example 11A-01] | > 10 µM

Now for the molecule whose EC50 we want.
Response field EC50 (human GLP-1R (Homo sapiens, UniProt P43220, G168S)) for item CN1CCC(CCn2c(CN3CCC(c4cccc(OCc5ccc(Cl)cc5F)n4)CC3)nc3ccc(C(=O)O)cc32)CC1 [Example 11A-07] : > 20 µM
